target: GTPase KRas (Homo sapiens, UniProt P01116, G12D)
Sequence (P01116 whole entry G12D): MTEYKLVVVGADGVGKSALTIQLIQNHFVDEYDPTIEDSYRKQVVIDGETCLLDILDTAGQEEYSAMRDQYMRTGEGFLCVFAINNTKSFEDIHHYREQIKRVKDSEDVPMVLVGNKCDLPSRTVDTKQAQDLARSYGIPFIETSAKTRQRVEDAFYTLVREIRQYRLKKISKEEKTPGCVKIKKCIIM
property-measured: pIC50
A value of pIC50 is the negative decimal logarithm of a concentration given in moles per litre.

Some molecules with recorded pIC50:
CCc1c(F)ccc2cc(O)cc(-c3ncc4c(N5CCCC6(CC(=O)N6)C5)nc(OC[C@@]56CCCN5C[C@H](F)C6)nc4c3F)c12 (some centres not stated) ... 8.70
Oc1cc(-c2ncc3c(N4CCCC5(CC(O)C5)C4)nc(OC[C@@]45CCCN4C[C@H](F)C5)nc3c2F)c2c(F)c(F)ccc2c1 (some centres not stated) ... 8.70
C#Cc1c(F)ccc2cc(O)cc(-c3ncc4c(N5CCCC6(CCO6)C5)nc(OC[C@@]56CCCN5C[C@H](F)C6)nc4c3F)c12 (some centres not stated) ... 9.00
CCc1c(F)ccc2cc(O)cc(-c3ncc4c(N5CCCC6(CCO6)C5)nc(OC[C@@]56CCCN5C[C@H](F)C6)nc4c3C)c12 (some centres not stated) ... 8.40
CCc1cccc2cc(O)cc(-c3ncc4c(N5CCCC6(CC(O)C6)C5)nc(OC[C@@]56CCCN5C[C@H](F)C6)nc4c3F)c12 (some centres not stated) ... 9.00

Lab request: please report pIC50 under test system GTPase KRas (Homo sapiens, UniProt P01116, G12D) for CCc1cccc2cc(O)cc(-c3ncc4c(N5CCCC6(CCO6)C5)nc(OC[C@@]56CCCN5C[C@H](F)C6)nc4c3F)c12 (some centres not stated)
8.52

Please tell me: pIC50 of Oc1cc(Cl)c(C2CC2)c(-c2ncc3c(N4CCCC5(CCO5)C4)nc(OC[C@@]45CCCN4C[C@H](F)C5)nc3c2F)c1 (some centres not stated) , system GTPase KRas (Homo sapiens, UniProt P01116, G12D)?
8.70
